System: OVCAR-8
ASSAY OVERVIEW: NCI tumour cell line growth inhibition, 48 h
Activity calls are given as the source filed them. No stated cut-off is given here; in the data, active = GI50 up to about 1.1 µM and inactive = higher.
Field: GI50. Provide a value for each of the compounds that follow.

Given the entry "c1ccc2c(c1)nc1n2CSC1" , report its measured GI50.
> 100 µM (inactive)

Proceed to "CC1(C)CCC2=C(O1)/C(=N\Nc1ccccc1)c1ccccc1C2=O"
36.2 µM (inactive)

Proceed to CC(C)=CC(O)C(C(O)CCC1(C)OCCO1)S(=O)(=O)c1ccccc1 (stereo unspecified)
> 100 µM (inactive)

Proceed to CC1(C)CC(O)CC(C)(C)N1O [TEMPOL HYDROXYLAMINE]
> 100 µM (inactive)

Proceed to "CCOC(=O)c1oc2cc3c(c4c2c1-c1ccccc1N4C)C=CC(C)(C)O3"
5.85 µM (inactive)

Proceed to CC(=O)OC1CC2C(=O)CC1(C)C2(C)C (stereo unspecified)
> 100 µM (inactive)

Proceed to "C[C@H]1[C@H]2[C@H]3CC[C@@H]4[C@@]5(C)CC[C@H](O)C(C)(C)[C@@H]5CC[C@@]4(C)[C@]3(C)C[C@H](O)[C@@]2(C)C[C@H]2O[C@]21C"
19.6 µM (inactive)

Proceed to COc1ccc(/C=C2\CC3C4CC=C5C[C@@H](O)CC[C@]5(C)C4CC[C@]3(C)C2=O)cc1OC (stereo partly specified)
43.3 µM (inactive)

Proceed to "COC(=O)[C@]1(C)CCCn2c(=O)n(-c3ccccc3)c(=O)n21"
> 100 µM (inactive)

Proceed to [N-]=[N+]=NC(CI)c1cn([C@H]2C[C@H](O)[C@@H](CO)O2)c(=O)[nH]c1=O (stereo partly specified)
> 100 µM (inactive)

Proceed to "COC(=O)C(=CNC(N)=O)C(=O)OC"
> 100 µM (inactive)

Proceed to "O=C1OC(=O)c2c1cc1cc3c(cc1c2-c1ccc2c(c1)OCO2)OCO3"
> 100 µM (inactive)

Proceed to CC1(C)C(C#N)C1C1=C(N2CCOCC2)[C@]2(C)C(OC(=O)c3ccccc3)CC[C@@H]2C1 (stereo partly specified)
> 100 µM (inactive)

Proceed to COc1ccc2c(c1)CCC(CN1CCN(CCOC(c3ccc(F)cc3)c3ccc(F)cc3)CC1)C2O (stereo unspecified)
13.8 µM (inactive)

Proceed to "CC(C)(C)c1ccc(O)c(CN(Cc2cc(C(C)(C)C)ccc2O)C2CCCCC2)c1"
15.9 µM (inactive)

Proceed to "N#C/C(=C\c1cc(Br)c(O)c(Br)c1)c1ccccn1"
94.8 µM (inactive)

Proceed to "COc1ccc(Nc2nc3ccccc3nc2C(=O)O)cc1"
71.3 µM (inactive)

Proceed to CC(C)CC(N/C=C1/N=C(c2ccccc2)OC1=O)C(=O)O (stereo unspecified)
> 100 µM (inactive)

Proceed to "Cc1ccc(C2=NOC(=O)[C@@H]3CCCC[C@@H]23)cc1"
> 100 µM (inactive)

Proceed to "Fc1cccc(/C=N/C23CC4CC(CC(C4)C2)C3)c1"
> 100 µM (inactive)

Proceed to Cc1ncc2c(n1)CCC1=C2OS(=O)(=O)CC1N(C)C (stereo unspecified)
> 100 µM (inactive)

Proceed to "CN/N=C(/CC(=O)c1sc(-n2nc(-c3ccccc3)cc2-c2ccccc2)nc1C)C(=O)Nc1ccc(Cl)c(Cl)c1"
51.1 µM (inactive)

Proceed to "O=C(c1cccc2ccccc12)C1S(=O)(=O)OCCOS1(=O)=O"
> 100 µM (inactive)

Proceed to "CCOC(=O)Cc1c(C)c2ccc(OC(C)=O)c(OC(C)=O)c2oc1=O"
18.6 µM (inactive)

Proceed to "Cc1cc(C)c(S(=O)(=O)N(CCCCCCN)OCCCN)c(C)c1"
14 µM (inactive)

Proceed to "C=CC(C)(C)c1cc([C@@H]2COc3cc(O)ccc3C2=O)c(O)c(O)c1OC"
16.4 µM (inactive)

Proceed to "O=C1c2ccccc2C(=O)c2c1sc1nc3ccccc3n21"
1.9 µM (inactive)

Proceed to CC1NOC(=O)C1/N=N/c1ccccc1Br (stereo unspecified)
22 µM (inactive)

Proceed to "CCN(CC)c1ccc2cc(-c3nnc(-c4ccccc4)o3)c(=O)oc2c1"
28.1 µM (inactive)

Proceed to CC1CCC2C(C(=O)O[C@H]3C4CCO[C@@H](OC5OC(CO)C(O)C(O)C5O)C4[C@@]4(CO)O[C@@H]34)=CO[C@@H](OC3OC(CO)C(O)C(O)C3O)C12 (stereo partly specified)
> 10 µM (inactive)

Proceed to "N#CC(=S)Nc1ccc(F)cc1"
96.2 µM (inactive)

Proceed to "COc1ccc2c(c1O)[C@@]13CCCC=C1[C@@H](C2)[N+](C)(C)CC3"
> 100 µM (inactive)

Proceed to "O=C(NNC(=O)c1ccccc1O)c1ccc(O)cc1"
21.1 µM (inactive)

Proceed to CCOc1cc(C=O)ccc1O [ETHYL VANILLIN]
> 100 µM (inactive)

Proceed to "COc1ccccc1C[C@@H]1OC2(C=CC(=O)C=C2)O[C@H]1Cc1ccccc1OC"
1.27 µM (inactive)

Proceed to Nc1nc(Cl)cc(NCC2(CO)CC(c3ccccc3)C2)n1 (stereo unspecified)
34.7 µM (inactive)

Proceed to COc1ccc(/C=C2/SC(c3ccccc3)N(NC(=O)CCCCCCCCC(=O)NN3C(=O)/C(=C\c4ccc(OC)c(OC)c4)SC3c3ccccc3)C2=O)cc1OC (stereo unspecified)
67.8 µM (inactive)

Proceed to "CS(=O)(=O)N/N=C/CN1C(=O)c2ccccc2C1=O"
> 100 µM (inactive)

Proceed to [O-][S+](CCCl)c1c2ccccc2nc2ccccc12 (stereo unspecified)
85.1 µM (inactive)

Proceed to COc1cc(CC2CC(c3ccc4c(c3)OCO4)OC2=O)cc(OC)c1OC (stereo unspecified)
> 100 µM (inactive)

Proceed to CNC(=O)C(C)C1CCC2(C)C=CC(=O)C(C)=C2C1O (stereo unspecified)
> 49.4 µM (inactive)

These entries and their values trace back to ChEMBL document CHEMBL1201862.
